Experiment: Stability, protonation and conditional stability constants (pGd) of Gd(III)-complexes (out-of-cell pH-potentiometry, 1H NMR relaxometry, competition with AAZTA)
Assay type: physicochemical
Settings: 0.15 M NaCl, 25 °C
Recorded logK GdL by entry

Compound	logK GdL
O=C(O)CCC(C(=O)O)N1CCN(C(CCC(=O)O)C(=O)O)Cc2cccc(n2)CN(C(CCC(=O)O)C(=O)O)CC1 (racemic) [rac‐L1]	18.65(5)
O=C(CCC(C(=O)O)N1CCN(C(CCC(=O)NCC(O)CO)C(=O)O)Cc2cccc(n2)CN(C(CCC(=O)NCC(O)CO)C(=O)O)CC1)NCC(O)CO (racemic) [rac‐L2]	18.96 (7)
O=C(CCC(C(=O)O)N1CCN(C(CCC(=O)NCC(O)CO)C(=O)O)Cc2cccc(n2)CN(C(CCC(=O)NCC(O)CO)C(=O)O)CC1)NCC(O)CO (stereo not drawn) [ent‐L2]	20.36 (3)

Consider the record given below.
Quick check: logK GdL of O=C(O)CCC(C(=O)O)N1CCN(C(CCC(=O)O)C(=O)O)Cc2cccc(n2)CN(C(CCC(=O)O)C(=O)O)CC1 (stereo not drawn) [ent‐L1] ?
20.17 (9)
